test system: SF-295 CNS; experiment: NCI tumour cell line growth inhibition, 48 h
QUANTITY_KIND: TGI

Output TGI of Nc1nc(Nc2ccc(C3CCC(N4CCOCC4)CC3)cc2)nn1-c1ccccn1 (centres undefined) 10.9 µM

Output TGI of O=c1[nH]nc(-c2ccccc2)n1/N=C/c1cccnc1 > 100 µM

Output TGI of COc1c2c(nc3ccccc13)-c1cc3c(c(=O)n1C2)COC(=O)C3(O)CC(=O)N1CCOCC1 (centres undefined) 31.7 µM

Output TGI of O=C1c2cc3c(cc2CC12Cc1ccc4c(c1C2=O)CCCC4)CCCC3 (centres undefined) > 100 µM

Output TGI of Cc1[nH]c2ccccc2c1C1Cc2ccccc2N1C(=O)/C=C/C(=O)O (centres undefined) > 100 µM

Output TGI of Cc1ccccc1NC(=O)C(=O)CC(=O)c1c(C)n([O-])c2ccccc2[n+]1=O > 100 µM

Output TGI of COC(=O)c1c(O)ccc2c1c1c(n2Cc2cccc(C)c2)C(=O)c2ccccc2C1=O 30.2 µM

Output TGI of O=C(NN1C(=O)CSC12CCCC2)c1[nH]c2ccc(Br)cc2c1-c1ccccc1 69.7 µM

Output TGI of CC(C)(Oc1ccc(Cl)cc1)C(=O)N(C(=O)N1CCC(c2ccccc2)CC1)c1ccccc1 > 100 µM

Output TGI of CC1=NN(c2nc(N)nc(/C(C#N)=C/c3cccn3-c3cc(Cl)cc(Cl)c3)n2)C(C)(C)C1 > 100 µM

----------
test system: ACHN renal; assay: NCI tumour cell line growth inhibition, 48 h
QUANTITY_KIND: TGI

MOLECULE | TGI
Cc1ccc(Nc2nc(C)c(C(/C=C/c3ccc(/C=C/C(=N/NC(=O)C[n+]4ccccc4)c4sc(Nc5ccc(C)cc5[N+](=O)[O-])nc4C)cc3)=N\NC(=O)C[n+]3ccccc3)s2)c([N+](=O)[O-])c1 | > 100 µM
COc1ccc(-n2c(=O)n(C)c(=O)n2-c2ccc(OC)cc2)cc1 | > 100 µM
CC[C@H](CO)Nc1nc(NCc2ccccc2)n2ncc(C(C)C)c2n1 | 10.7 µM
c1cn(C23C4C5C6C4C2C6C53)cn1 (stereo not given) | > 100 µM

Output TGI of Cc1c(NC(=O)CSC(=S)N2CCN(Cc3ccccc3)CC2)c(=O)n(-c2ccccc2)n1C > 100 µM

----------
tested on: M14 melanoma; experiment: NCI tumour cell line growth inhibition, 48 h
# TGI per entry

COMPOUND | TGI
Cc1ccc(N2C(=O)C3C=CC(n4[nH]c(=O)n(Cc5ccccc5)c4=O)CC3C2=O)cc1 (centres undefined) | > 100 µM
COc1ccc(NC(C)=O)cc1N1C(=O)/C(=C\c2cc(OC)c(OC)c(OC)c2)SC1c1ccccc1 (centres undefined) | > 100 µM
Cn1cc(C2=C(c3cccc(OCC(O)CO)c3)C(=O)NC2=O)c2ccccc21 (centres undefined) | > 25 µM

Shift focus to the following entry.
Output TGI of CC#CC(=O)SCCNC(=O)CC > 10 µM

----------
test system: A498 renal; assay: NCI tumour cell line growth inhibition, 48 h
QUANTITY_KIND: TGI

COMPOUND | MEASUREMENT_TARGET | ASSAY_RESULT
Cc1cccc(C(C)C)c1NC(=O)CC1C(=O)Nc2ccccc2S1(=O)=O (stereo not drawn) | A498 renal | > 54.2 µM
N#CC(c1nc2ccccc2nc1Cl)S(=O)(=O)c1ccccc1 (stereo not drawn) | A498 renal | > 100 µM
C=C(CO[Si](C)(C)C(C)(C)C)C(C)=O | A498 renal | > 100 µM
Cc1cc(N2CCCC2)nc(N(CCNc2ccnc3cc(Cl)ccc23)Cc2ccco2)n1 | A498 renal | 7.79 µM
COc1c(Cl)cc(NC(=S)C#N)cc1Cl | A498 renal | 44.5 µM
CCCCCCCCCCCCCCCCCCNc1ccn(C2OC(COP(=O)(O)OCC3OC(n4cc(F)c(NCCCCCCCCCCCCCCCCCC)nc4=O)CC3O)C(O)C2O)c(=O)n1 (stereo not drawn) | A498 renal | > 100 µM

Output TGI of CC1=NN(c2nc(N)nc(/C(C#N)=C/c3cccn3-c3cc(Cl)cc(Cl)c3)n2)C(C)(C)C1 > 100 µM

Output TGI of CS[C@]12C(=O)C[C@@]3(C)[C@@H](CC[C@]3(O)C(=O)CO)[C@@H]1CCC1=CC(=O)CC[C@@]12C > 100 µM
